# Test system: CYP3A
# PROTOCOL TEXT: Clinical DDI study: pharmacokinetics of midazolam (CYP3A probe substrate) and 1′-hydroxymidazolam with and without ceritinib
# Type: in vivo, human
# STUDY CONDITIONS: human, plasma, po, 2.5 mg, midazolam 2.5 mg single oral dose alone (Day 1), patient plasma, geometric mean (CV%); read-out: Cmax
ASSAY ENDPOINT: Cmax (ng/mL)
Answers are plain numbers, in ng/mL.

For "Cc1ncc2n1-c1ccc(Cl)cc1C(c1ccccc1F)=NC2" on CYP3A, measured Cmax was 23

====

# Tested on: CYP3A
# PROTOCOL TEXT: Clinical DDI study: pharmacokinetics of midazolam (CYP3A probe substrate) and 1′-hydroxymidazolam with and without ceritinib
# Type: in vivo, human
# STUDY CONDITIONS: human, plasma, oral, treatment midazolam alone, linear mixed effects model; read-out: Cmax, adjusted geometric mean
ASSAY ENDPOINT: Cmax (µg/mL)
One number for each entry, in µg/mL.

Entry "Cc1ncc2n1-c1ccc(Cl)cc1C(c1ccccc1F)=NC2" ; Cmax = 0.023

====

# Tested on: CYP3A
# PROTOCOL TEXT: Clinical DDI study: pharmacokinetics of midazolam (CYP3A probe substrate) and 1′-hydroxymidazolam with and without ceritinib
# Type: in vivo, human
# STUDY CONDITIONS: human, plasma, po, midazolam 2.5 mg single oral dose + ceritinib 750 mg QD (Day 28), geometric mean (CV%)
ASSAY ENDPOINT: half-life (min)
Numbers only, in min.

Entry "Cc1ncc2n1-c1ccc(Cl)cc1C(c1ccccc1F)=NC2" ; half-life = 900

====

# System: CYP3A
# PROTOCOL TEXT: Clinical DDI study: pharmacokinetics of midazolam (CYP3A probe substrate) and 1′-hydroxymidazolam with and without ceritinib
# Type: in vivo, human
# STUDY CONDITIONS: human, plasma, po, midazolam 2.5 mg single oral dose + ceritinib 750 mg QD at steady state (Day 28), patient plasma, geometric mean (CV%); read-out: Cmax
ASSAY ENDPOINT: Cmax (ng/mL)
Answers are plain numbers, in ng/mL.

Entry Cc1ncc2n1-c1ccc(Cl)cc1C(c1ccccc1F)=NC2 [Midazolam, midazolam] ; Cmax = 42

====

# System: CYP3A
# PROTOCOL TEXT: Clinical DDI study: pharmacokinetics of midazolam (CYP3A probe substrate) and 1′-hydroxymidazolam with and without ceritinib
# Assay type: in vivo, human
# STUDY CONDITIONS: human, plasma, po, 2.5 mg; read-out: AUC0–144 h
ASSAY ENDPOINT: AUC(0-t) (ng·h/mL)
Give bare numbers, in ng·h/mL.

Entry Cc1ncc2n1-c1ccc(Cl)cc1C(c1ccccc1F)=NC2 [Midazolam, midazolam] ; AUC(0-t) = 70.2

====

# Tested on: CYP3A
# PROTOCOL TEXT: Clinical DDI study: pharmacokinetics of midazolam (CYP3A probe substrate) and 1′-hydroxymidazolam with and without ceritinib
# Type: in vivo, human
# STUDY CONDITIONS: human, plasma, oral
ASSAY ENDPOINT: Tmax

Entry "Cc1ncc2n1-c1ccc(Cl)cc1C(c1ccccc1F)=NC2" ; Tmax = ~1 h

Data origin, for the record: paper PMC7946667
